Values from BindingDB's records for doi:10.1016/j.bmc.2006.09.055

# SUBJECT OF TEST: Falcipain 2 (Plasmodium falciparum)
# Sequence (Q9N6S8 whole entry): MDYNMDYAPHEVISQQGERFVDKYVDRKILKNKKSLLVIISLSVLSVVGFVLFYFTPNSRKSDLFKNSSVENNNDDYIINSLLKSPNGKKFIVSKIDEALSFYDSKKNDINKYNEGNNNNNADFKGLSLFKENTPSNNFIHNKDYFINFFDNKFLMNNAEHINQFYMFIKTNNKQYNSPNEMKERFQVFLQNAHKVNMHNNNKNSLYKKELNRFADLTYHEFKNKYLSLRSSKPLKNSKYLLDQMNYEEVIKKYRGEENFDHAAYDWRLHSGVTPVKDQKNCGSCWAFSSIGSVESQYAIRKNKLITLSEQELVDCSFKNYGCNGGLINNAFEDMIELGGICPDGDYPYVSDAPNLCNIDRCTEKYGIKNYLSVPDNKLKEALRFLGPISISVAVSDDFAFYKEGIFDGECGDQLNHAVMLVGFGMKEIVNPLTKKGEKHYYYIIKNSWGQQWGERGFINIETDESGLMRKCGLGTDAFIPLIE
pIC50: −log10 of the molar value.

CHEM SMILES	pIC50
NC(=S)NN=Cc1ccc(O)cc1O	< 4.70
